IC50 values for the binders below.
Biological target: full-length beta-Catenin (Uniprot ID P35222) (Homo sapiens (Human)) (UniProt P35222)
Sequence (P35222 whole entry): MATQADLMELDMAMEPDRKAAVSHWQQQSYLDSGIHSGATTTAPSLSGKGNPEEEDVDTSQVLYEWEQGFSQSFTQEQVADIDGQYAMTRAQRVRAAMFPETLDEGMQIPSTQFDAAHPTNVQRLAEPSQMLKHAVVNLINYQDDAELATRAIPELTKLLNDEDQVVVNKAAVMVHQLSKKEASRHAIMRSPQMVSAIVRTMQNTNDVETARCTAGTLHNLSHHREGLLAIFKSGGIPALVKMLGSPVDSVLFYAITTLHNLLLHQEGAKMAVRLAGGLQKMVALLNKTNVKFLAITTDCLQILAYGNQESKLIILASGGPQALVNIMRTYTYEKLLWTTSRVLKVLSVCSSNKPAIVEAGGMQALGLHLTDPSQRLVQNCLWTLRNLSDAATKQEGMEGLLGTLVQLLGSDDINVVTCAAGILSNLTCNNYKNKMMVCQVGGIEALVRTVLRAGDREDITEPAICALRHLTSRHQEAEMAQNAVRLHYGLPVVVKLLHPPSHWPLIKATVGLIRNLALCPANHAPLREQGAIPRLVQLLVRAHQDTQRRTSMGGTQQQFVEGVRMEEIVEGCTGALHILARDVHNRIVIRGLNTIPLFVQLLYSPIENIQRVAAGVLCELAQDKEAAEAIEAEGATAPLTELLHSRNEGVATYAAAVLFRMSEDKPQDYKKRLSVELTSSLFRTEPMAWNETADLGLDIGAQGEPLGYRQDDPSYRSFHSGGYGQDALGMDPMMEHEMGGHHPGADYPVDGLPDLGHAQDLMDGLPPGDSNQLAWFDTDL
Experiment: fluorescence polarization competition; 10 nM full-length beta-catenin + 10 nM 5FAM-TCF4(10-53) probe
Starred links: 1 amine or outer side, 2 acyl side, 3 side chain; linkers in the order of their positions; H or OH if unused. Positions of bridges follow the written chain, without caps; N, C: chain ends. Non-standard residues stand in square brackets, D forms with d. Primed or numbered codes have the meaning given here. PyrS2″ = (S)-3-amino-1-((pent-4-en-1-yloxy)carbonyl)pyrrolidine-3-carboxylic acid (stapling residue), C=CCCCOC(=O)N1CC[C@@](N[*:1])(C(=O)[*:2])C1; B5(4) = 2,2-bis(4-pentenyl)glycine = 2-amino-2-(pent-4-en-1-yl)hept-6-enoic acid (stitching residue), C=CCCCC(CCCC=C)(N[*:1])C(=O)[*:2]; PyrS2 = (S)-3-amino-1-((pent-4-en-1-yloxy)carbonyl)pyrrolidine-3-carboxylic acid, C=CCCCOC(=O)N1CC[C@@](N[*:1])(C(=O)[*:2])C1; R4 = (R)-2-amino-2-methylhex-5-enoic acid, C=CCC[C@@](C)(N[*:1])C(=O)[*:2]; Bta = N[C@@H](Cc1csc2ccccc12)C(=O)O; αAllylPro = C=CC[C@@]1(C(=O)O)CCCN1; tBuAla = CC(C)(C)C[C@H](N)C(=O)O; 3Thi = N[C@@H](Cc1ccsc1)C(=O)O
Answer format: numeric, nM implied, no suffix.

{"binder": "Ac-PD[tBuAla][R4]DDAAFL[PyrS2][3Thi][Bta]Q-NH2 (staple 4-11; not fully specified; printed as Ac-Pro-Asp-Npg-R4-Asp-Asp-Ala-Ala-Phe-Leu-PyrS2-3Thi-BztA-Gln-NH2; also: staple -CH=CH- reduced to -CH2-CH2-) [I-1992]", "IC50 (nM)": 536}

Consider the record given below.
Problem: // IC50 lookup, key: Ac-[αAllylPro]DA[B5(4)]NTAAFN[PyrS2″][3Thi][Bta]Q-NH2 (staple 1-4, 4-11; not fully specified; printed as Ac-PL3-Asp-Ala-B5-Asn-Thr-Ala-Ala-Phe-Asn-PyrS2-3Thi-BztA-Gln-NH2) [I-2002]
Result: 612
